target.or.test.system: human APJ receptor (Homo sapiens (Human), UniProt P35414)
Sequence (P35414 whole entry): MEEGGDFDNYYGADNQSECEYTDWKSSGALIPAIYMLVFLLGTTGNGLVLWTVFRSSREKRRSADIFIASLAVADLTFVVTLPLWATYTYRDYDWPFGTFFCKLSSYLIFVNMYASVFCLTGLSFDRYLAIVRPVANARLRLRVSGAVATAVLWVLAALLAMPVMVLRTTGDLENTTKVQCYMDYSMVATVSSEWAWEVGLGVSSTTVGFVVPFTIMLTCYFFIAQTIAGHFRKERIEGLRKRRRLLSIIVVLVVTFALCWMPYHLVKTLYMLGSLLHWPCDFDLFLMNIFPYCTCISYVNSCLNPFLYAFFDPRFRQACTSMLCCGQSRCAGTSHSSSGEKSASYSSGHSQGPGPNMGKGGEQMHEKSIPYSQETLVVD
assay.explanation: [35S]GTPγS binding assay on membranes from CHO cells stably expressing human APJ receptor
condition.info: membranes of CHO cells stably expressing human APJ receptor, read-out: Activity hAPJ SPA EC50 IP
quantity: pEC50
Recall that pEC50 is obtained by taking minus log10 of the concentration measured in molar.

compound: CCc1noc(C)c1Cn1c(NS(=O)(=O)[C@@H](C)[C@@H](OC(C)C)c2ncc(C)cn2)nnc1-c1cccc(OC)n1 [Example 194.0]
target.or.test.system: human APJ receptor (Homo sapiens (Human), UniProt P35414)
pEC50: 7.25

**Query** Indicate the recorded pEC50 value for this compound: CC[C@H](c1c(C)noc1C)n1c(NS(=O)(=O)[C@@H](C)[C@H](C)c2ncc(Cl)cn2)nnc1-c1cccc(OC)n1 (mixture of isomers) [Example 210.0]
**Result** 8.28

**Query** Indicate the recorded pEC50 value for this compound: CC[C@@H](c1conc1C)n1c(NS(=O)(=O)[C@@H](C)[C@H](C)c2ncc(Cl)cn2)nnc1-c1cccc(OC)n1 (mixture of isomers) [Example 227.0]
**Result** 8.35

**Query** Indicate the recorded pEC50 value for this compound: COCC(COC)n1c(NS(=O)(=O)[C@@H](C)[C@H](OC)c2cnc(OC)cn2)nnc1-c1cccc(OC)n1 [Example 101.0]
**Result** 8.05

**Query** Indicate the recorded pEC50 value for this compound: COc1cccc(-c2nnc(NS(=O)(=O)[C@@H](C)[C@H](OC)c3ncc(Cl)cn3)n2[C@H](C)c2cncc(F)c2)n1 (single isomer, unassigned) [Example 348.0]
**Result** 8.87

**Query** Indicate the recorded pEC50 value for this compound: COc1cc(Cn2c(NS(=O)(=O)[C@@H](C)[C@H](OC)c3ncc(Cl)cn3)nnc2-c2cccc(OC)n2)on1 [Example 197.0]
**Result** 7.92

**Query** Indicate the recorded pEC50 value for this compound: COc1cccc(-c2nnc(NS(=O)(=O)[C@@H](C)[C@H](OC)c3ncc(Cl)cn3)n2C[C@@H]2CCC[C@H](C)O2)n1 (single isomer, unassigned) [Example 306.0]
**Result** 7.46

**Query** Indicate the recorded pEC50 value for this compound: COc1cccc(-c2nnc(NS(=O)(=O)[C@@H](C)[C@H](OC)c3ncc(Cl)cn3)n2CC(OC)OC)n1 [Example 77.0]
**Result** 6.87

**Query** Indicate the recorded pEC50 value for this compound: COc1cccc(-c2nnc(NS(=O)(=O)[C@@H](C)[C@@H](OC(C)C)c3ncc(C)cn3)n2[C@@H](C)c2ncc(C)o2)n1 (single isomer, unassigned) [Example 242.0]
**Result** 7.89

**Query** Indicate the recorded pEC50 value for this compound: COc1cccc(-c2nnc(NS(=O)(=O)[C@@H](C)[C@H](OC)c3ncc(Cl)cn3)n2[C@H]2CCCC[C@H]2C)n1 (stereo in doubt) [Example 75.0]
**Result** 8.52

**Query** Indicate the recorded pEC50 value for this compound: COc1cccc(-c2nnc(NS(=O)(=O)[C@@H](C)[C@H](C)c3ncc(Cl)cn3)n2[C@@H](C)c2nc(C)no2)n1 (single isomer, unassigned) [Example 247.0]
**Result** 8.28

**Query** Indicate the recorded pEC50 value for this compound: COc1cccc(-c2nnc(NS(=O)(=O)[C@@H](C)[C@@H](OC(C)C)c3ncc(C)cn3)n2[C@@H](C)c2ncc(C)o2)n1 (single isomer, unassigned) [Example 241.0]
**Result** 8.13

**Query** Indicate the recorded pEC50 value for this compound: CCc1cc(Cn2c(NS(=O)(=O)[C@@H](C)[C@H](OC)c3ncc(Cl)cn3)nnc2-c2cccc(OC)n2)on1 [Example 292.0]
**Result** 8.62

**Query** Indicate the recorded pEC50 value for this compound: COc1cccc(-c2nnc(NS(=O)(=O)[C@@H](C)[C@H](OC)c3ncc(Cl)cn3)n2C(C2CC2)C2CC2)n1 [Example 25.0]
**Result** 10.10

**Query** Indicate the recorded pEC50 value for this compound: COc1cccc(-c2nnc(NS(=O)(=O)[C@@H](C)[C@H](OC)c3ncc(Cl)cn3)n2[C@@H]2CC[C@H]2OC)n1 (single isomer, unassigned) [Example 162.0]
**Result** 8.55

**Query** Indicate the recorded pEC50 value for this compound: COc1cccc(-c2nnc(NS(=O)(=O)[C@@H](C)[C@H](OC)c3ncc(Cl)cn3)n2[C@@H]2C[C@@H]2F)n1 [Example 169.0]
**Result** 7.70

**Query** Indicate the recorded pEC50 value for this compound: COc1cccc(-c2nnc(NS(=O)(=O)[C@@H](C)[C@@H](OC(C)C)c3ncc(C)cn3)n2[C@@H](C)c2c(C)noc2C)n1 (racemic) [Example 315.0]
**Result** 7.24

**Query** Indicate the recorded pEC50 value for this compound: CC[C@H](c1c(C)noc1C)n1c(NS(=O)(=O)[C@@H](C)[C@@H](OC(C)C)c2ncc(C)cn2)nnc1-c1cccc(OC)n1 (mixture of isomers) [Example 209.0]
**Result** 7.85

**Query** Indicate the recorded pEC50 value for this compound: CCc1noc(C)c1Cn1c(NS(=O)(=O)[C@@H](C)[C@H](OC)c2ncc(Cl)cn2)nnc1-c1cccc(OC)n1 [Example 192.0]
**Result** 6.59

**Query** Indicate the recorded pEC50 value for this compound: COc1cccc(-c2nnc(NS(=O)(=O)[C@@H](C)[C@H](OC)c3ncc(Cl)cn3)n2C2(C3CC3)CC2)n1 [Example 107.0]
**Result** 9.38
